The reader will find pIC50 measurements below, all made with IRAK4 (Homo sapiens, UniProt Q9NWZ3).
Sequence (Q9NWZ3 whole entry, species assumed): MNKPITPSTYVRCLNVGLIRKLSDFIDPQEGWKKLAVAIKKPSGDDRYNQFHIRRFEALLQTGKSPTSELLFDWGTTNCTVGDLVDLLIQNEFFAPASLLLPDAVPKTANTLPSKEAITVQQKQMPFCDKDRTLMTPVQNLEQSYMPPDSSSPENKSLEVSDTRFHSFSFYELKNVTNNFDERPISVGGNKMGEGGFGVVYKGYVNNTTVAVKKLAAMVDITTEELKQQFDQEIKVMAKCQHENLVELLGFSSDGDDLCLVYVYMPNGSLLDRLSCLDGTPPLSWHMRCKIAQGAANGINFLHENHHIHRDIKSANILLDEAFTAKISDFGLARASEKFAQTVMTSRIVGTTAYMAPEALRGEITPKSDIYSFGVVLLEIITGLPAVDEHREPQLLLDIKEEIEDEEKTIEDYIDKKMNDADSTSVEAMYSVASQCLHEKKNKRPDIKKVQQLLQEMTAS
Where a name gives a salt, the structure may show the parent alone.
Value format note: pIC50 is -log10 of concentration (mol/L); just state the number.

Example cases with answers are listed next.
molecule: CCNc1c(C(=O)NC[C@@H](F)C(C)(C)O)cnc2c1[nH]c1cc(C#N)ccc12 [Example 2]
pIC50: 8.80
--
molecule: CC(C)Nc1c(-c2cn(C3CCNCC3)nn2)cnc2c1[nH]c1cc(C#N)ccc12 [Example 75]
pIC50: 8.82
--
molecule: CC(C)Nc1c(C(=O)N[C@H]2C[C@H](C(C)(C)O)C2)cnc2c1[nH]c1cc(C#N)ccc12 [Example 39]
pIC50: 8.41
--
molecule: CC(=O)NC(C)(C)CCNC(=O)c1cnc2c([nH]c3cc(C#N)ccc32)c1NC(C)C [Example 60]
pIC50: 8.42
--
molecule: CC(C)Cc1nc(-c2cnc3c([nH]c4cc(C#N)ccc43)c2NC(C)C)n[nH]1 [Example 70, TFA]
pIC50: 5.77

Task: What reported pIC50 corresponds to COCCNC(=O)c1cnc2c([nH]c3cc(C#N)ccc32)c1NC(C)C [Example 17] on IRAK4 (Homo sapiens, UniProt Q9NWZ3)?
Result: 7.89

Task: What reported pIC50 corresponds to CC(C)(O)[C@H](F)CNC(=O)c1cnc2c([nH]c3cc(C#N)ccc32)c1NC1CCC1 [Example 4] on IRAK4 (Homo sapiens, UniProt Q9NWZ3)?
Result: 8.70

Task: What reported pIC50 corresponds to C[C@@H](CO)Nc1c(C(=O)NCCC(C)(C)O)cnc2c1[nH]c1cc(C#N)ccc12 [Example 30] on IRAK4 (Homo sapiens, UniProt Q9NWZ3)?
Result: 8.28

Task: What reported pIC50 corresponds to CC(C)Nc1c(C(=O)NCC2(CO)CC2)cnc2c1[nH]c1cc(C#N)ccc12 [Example 8] on IRAK4 (Homo sapiens, UniProt Q9NWZ3)?
Result: 6.48

Hello, the source for this data is patent US12421230B2, in case you need it.
